- System: MKN-45 (Gastric Adenocarcinoma)
- EXPERIMENTAL DETAILS: Cell viability analysis, gastric cancer MKN-45
- Type: cell-based, human
- ASSAY CONTEXT: Homo sapiens, MKN-45; drug 10 μM, 72 hours, WST-1, OD450 nm; read-out: cell viability (survival rate), MKN-45
Where a name gives a salt, the structure may show the parent alone.
Task for the reader: assign each of the following compounds its reported viability at 10 µM.
One number for each entry, in %.

COMPOUND	viability at 10 µM [%]
Cc1cc(=O)n(-c2ccccc2)n1C [Antipyrine]	109

Each compound below has a recorded value; state its viability at 10 µM.
1. O=C([O-])[C@H](O)[C@@H](O)[C@H](O)[C@H](O)CO.[Na+] [Sodium Gluconate]
2. CCC[C@H](NC(=O)[C@@H]1[C@H]2CCC[C@H]2CN1C(=O)[C@@H](NC(=O)[C@@H](NC(=O)c1cnccn1)C1CCCCC1)C(C)(C)C)C(=O)C(=O)NC1CC1
3. Cc1cc(C(C)(C)C)cc(C)c1CC1=NCCN1 [Xylometazoline HCl]
4. c1ccc2c(c1)sc1ccccc12
5. COC(=O)C1=CO[C@@H](O[C@@H]2O[C@H](CO)[C@@H](O)[C@H](O)[C@H]2O)[C@@H]2C(CO)=CC[C@H]12 [Geniposide]
6. CC(C)(C)C(=O)C(Oc1ccc(Cl)cc1)n1ccnc1 (centres unmarked)
7. CN(C)C(=O)C(CCN1CCC(O)(c2ccc(Cl)cc2)CC1)(c1ccccc1)c1ccccc1 [Loperamide hydrochloride]

1. 93
2. 48
3. 65.8
4. 92.1
5. 45.6
6. 97.7
7. 64.3

Each compound below has a recorded value; state its viability at 10 µM.
1. CC(C)OC(=O)OCOP(=O)(CO[C@H](C)Cn1cnc2c(N)ncnc21)OCOC(=O)OC(C)C [Tenofovir Disoproxil Fumarate]
2. COc1cccc(N(C)C(=S)Oc2ccc3c(c2)CCCC3)n1 [Liranaftate]
3. CCOC(=O)CCC(=O)O[C@H]1[C@H](O[C@@H]2[C@@H](C)[C@H](O[C@H]3C[C@@](C)(OC)[C@@H](O)[C@H](C)O3)[C@@H](C)C(=O)O[C@H](CC)[C@@](C)(O)[C@H](O)[C@@H](C)C(=O)[C@H](C)C[C@@]2(C)O)O[C@H](C)C[C@@H]1N(C)C [Erythromycin Ethylsuccinate]

1. 71.6
2. 76.7
3. 129
